Assayed target: Beta-lactamase TEM (Bacteria)
Sequence (P62593 whole entry): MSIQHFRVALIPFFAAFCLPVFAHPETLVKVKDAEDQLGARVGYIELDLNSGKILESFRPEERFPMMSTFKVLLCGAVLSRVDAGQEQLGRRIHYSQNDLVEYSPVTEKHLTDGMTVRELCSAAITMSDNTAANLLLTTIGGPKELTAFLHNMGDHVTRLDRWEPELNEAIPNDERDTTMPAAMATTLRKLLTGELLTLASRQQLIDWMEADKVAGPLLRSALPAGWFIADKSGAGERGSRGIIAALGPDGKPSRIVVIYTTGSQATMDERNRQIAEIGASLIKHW
Assay overview: Inhibition of bacterial Beta-lactamase TEM-1 (24 - 286) (unknown origin) expressed in Escherichia coli Transetta (DE3)
Note to self: use Criterion met only for IC50 readings below 2 µM; a reading exactly at 2 µM still gets Criterion not met.

Compound	Category label
COc1ccc2c(c1)C(c1ccc(N(C)C)cc1)OB2O (configuration not stated)	Criterion met
OB1OC(c2ccc(N3CCCCC3)cc2)c2ccccc21 (configuration not stated)	Criterion not met
CN(C)c1ccc(C2OB(O)c3ccc(Cl)cc32)cc1 (configuration not stated)	Criterion met
OB1OC(c2c[nH]c3ccc(Cl)cc23)c2ccccc21 (configuration not stated)	Criterion not met
OB1OC(c2c[nH]c3ccc(F)cc23)c2ccccc21 (configuration not stated)	Criterion not met
CN(C)c1ccc(C2OB(O)c3ccc(F)cc32)cc1 (configuration not stated)	Criterion not met
Cc1ccc2[nH]cc(C3OB(O)c4ccccc43)c2c1 (configuration not stated)	Criterion not met
OB1OC(c2cn(Cc3ccccc3)c3ccccc23)c2ccccc21 (configuration not stated)	Criterion not met
OB1OC(c2ccccc2)c2ccccc21 (configuration not stated)	Criterion not met
CN(C)c1ccc(C2OB(O)c3ccccc32)cc1 (configuration not stated)	Criterion met
OB1OC(c2c[nH]c3ccc(Br)cc23)c2ccccc21 (configuration not stated)	Criterion not met
OB1OC(c2c[nH]c3ccccc23)c2c(F)cccc21 (configuration not stated)	Criterion not met

###

Assay overview: Inhibition of bacterial Beta-lactamase VIM-1 (27 - 266) (unknown origin) expressed in Escherichia coli Transetta (DE3)
Parameters: species or system Bacteria
pIC50: −log10 of the molar value.
Experimental endpoint: pIC50

Compound	Experimental endpoint	Result comparator	Meas value
CN(C)c1ccc(C2OB(O)c3cccc(F)c32)cc1 (stereo unspecified)	pIC50	<	4.00
COc1ccc2c(c1)C(c1ccc(N(C)C)cc1)OB2O (stereo unspecified)	pIC50	<	4.00
OB1OC(c2cn(Cc3ccccc3)c3ccccc23)c2ccccc21 (stereo unspecified)	pIC50	=	4.97
OB1OC(c2c[nH]c3ccccc23)c2ccccc21 (stereo unspecified)	pIC50	=	4.82
CN(C)c1ccc(C2OB(O)c3cc(Cl)ccc32)cc1 (stereo unspecified)	pIC50	<	4.00
OB1OC(c2c[nH]c3ccccc23)c2c(F)cccc21 (stereo unspecified)	pIC50	=	4.05
CN(C)c1ccc(C2OB(O)c3ccc(F)cc32)cc1 (stereo unspecified)	pIC50	<	4.00
CNc1ccc(C2OB(O)c3ccccc32)cc1 (stereo unspecified)	pIC50	=	4.58
OB1OC(c2c[nH]c3ccc(F)cc23)c2ccccc21 (stereo unspecified)	pIC50	=	4.20
OB1OC(c2c[nH]c3ccc(Br)cc23)c2ccccc21 (stereo unspecified)	pIC50	=	4.88
CN(C)c1ccc(C2OB(O)c3ccccc32)cc1 (stereo unspecified)	pIC50	=	4.40
CNc1ccc(C2OB(O)c3cccc(F)c32)cc1 (stereo unspecified)	pIC50	<	4.00
OB1OC(c2ccc(N3CCCCC3)cc2)c2ccccc21 (stereo unspecified)	pIC50	=	4.73
OB1OC(c2cccs2)c2ccccc21 (stereo unspecified)	pIC50	=	4.76
Cc1ccc2[nH]cc(C3OB(O)c4ccccc43)c2c1 (stereo unspecified)	pIC50	=	4.79
NC(=O)[C@@H]1CC[C@@H]2CN1C(=O)N2OS(=O)(=O)O	pIC50	<	4.00
OB1OC(c2ccccc2)c2ccccc21 (stereo unspecified)	pIC50	=	4.13
CN(C)c1ccc(C2OB(O)c3ccc(Cl)cc32)cc1 (stereo unspecified)	pIC50	<	4.00
OB1OC(c2c[nH]c3ccc(Br)cc23)c2ccc(F)cc21 (stereo unspecified)	pIC50	<	4.00
OB1OC(c2c[nH]c3ccc(OCc4ccccc4)cc23)c2ccccc21 (stereo unspecified)	pIC50	<	4.00
CN(C)c1ccc(C2OB(O)c3cc4c(cc32)OCO4)cc1 (stereo unspecified)	pIC50	=	4.29
